tested system: SUDV GPddmuc (Sudan virus (SUDV), UniProt Q66814 33-650)
experiment summary: ELISA
Please note: EC50 exactly at 0.08 nM is no. Only values below 0.08 nM get yes.

is_below(EC50, 0.08 nM) for FVM02P (antibody, V domains shown) VH: EVQLVESGGGLVQPGGSLRLSCAASGFTGFTFSDYAFYWVRQAPGKGLEWVGFIRGKAYGGTADYAASVKGRFTISRDNSKNTAYLQMSSLKTEDSAVYYCTSQGVTVATPYHWGQGVLVTVSS VL: DIVLTQSPLSLPVTPGEPASISCRSSQSLLHSGGKTYLYWYLQKPGQSPQLLIHEVSNRASGVPDRFSGSGSGTDFTLKISRVEAEDVGVYYCMQGIQLPLTFGGGTKVEIKR ?
no

is_below(EC50, 0.08 nM) for FVM27 (antibody, V domains shown) VH: EVQLVQSGAEVKRPGESLKISCKTSGYSFASSWISWVRQMPGKGLEWMGAIDPSDSATRYSPSFQGQVTISADKSISTAYLQWSSLKASDTATYYCVKGSETWGQGVLVTVSS VL: QPVLTQPASLSASPGASASLTCTFSGGINVAGYNILWYQQKAGSPPRYLLRYKSDSTKDQGSGVPSRFSGSKDASANTGILRISGLQSEDEADYYCAIGHSSGWIFGGGTRLIVL ?
yes

is_below(EC50, 0.08 nM) for FVM29 (antibody, V domains shown) VH: EVQLVQSGAEVKRPGESLKISCQTSGNSFTNNWISWVRQMPGKGLEWMGAIDPSDSETRYSPSFQGQVTISADKSINTAYLQWSSLKASDTATYYCVKGSETWGQGVLVTVSS VL: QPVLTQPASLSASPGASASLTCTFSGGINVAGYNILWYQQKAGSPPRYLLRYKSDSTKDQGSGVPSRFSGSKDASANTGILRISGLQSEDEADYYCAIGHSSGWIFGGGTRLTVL ?
no

is_below(EC50, 0.08 nM) for FVM14 (antibody, V domains shown) VH: EVQLVQSGAEVKRPGESLKISCQTSGYSFTSTWITWVRQMPGKGLEWLGSIYPGDSETKYNPSFQGHVTISADKSISTTYLQWNSLKASDTATYYCVKGSETWGQGVLVTVSS VL: QAVVTQPASLSASPGASASLTCTFSGGINVAGYNILWYQQKAGSPPRYLLRYKSDSTKDQGSGVPSRFSGSKDASANTGILRISGLQSEDEADYYCAIGHSSGWIFGGGTRLTVL ?
yes
